test: Solubility test of compound of formula I and its salts at 37° C.; assay type: physicochemical; details: thermodynamic from solid; Water, 37° C., 24 h, calculated as free base; read-out: Solubility (mg/mL) (24 h)
Please go through the items and note down their solubility at 24 h.
Give bare numbers, in mg/mL.

| compound | readout.value |
| --- | --- |
| O=C(c1ccc(N[C@@H]2CCc3ncccc32)nc1)N1CCC2(CCOCC2)C1 [Compound of formula I] | 10.8 |

Now for another entry.
Entry O=C(c1cnc(N[C@@H]2CCc3ncccc32)nc1)N1CCC2(CCOCC2)C1 [Mono-L-tartrate of compound of formula I] ; solubility at 24 h = 10.5

----------
experiment: Solubility test of compound of formula I and its salts at 37° C.; type: physicochemical; conditions: FaSSIF, 37° C.

| compound | Sample appearance |
| --- | --- |
| O=C(O)CC(O)C(=O)O.O=C(c1cnc(NC2CCc3ncccc32)nc1)N1CCC2(CCOCC2)C1 [D-malate of compound of formula I] | Clarified solution |
| O=C(c1ccc(N[C@@H]2CCc3ncccc32)nc1)N1CCC2(CCOCC2)C1 [Compound of formula I] | Clarified solution |
| O=C(O)C=CC(=O)O.O=C(c1cnc(NC2CCc3ncccc32)nc1)N1CCC2(CCOCC2)C1 (stereo not shown) [Fumarate of compound of formula I] | Clarified solution |
| O=C(c1cnc(N[C@@H]2CCc3ncccc32)nc1)N1CCC2(CCOCC2)C1 [Mono-L-tartrate of compound of formula I] | Clarified solution |

----------
assay: Solubility test of compound of formula I and its salts at 37° C.; assay type: physicochemical; conditions: Water, 37° C.
endpoint.label: Sample appearance

| compound | readout.value |
| --- | --- |
| O=C(c1cnc(N[C@@H]2CCc3ncccc32)nc1)N1CCC2(CCOCC2)C1 [Mono-L-tartrate of compound of formula I] | Clarified solution |
| O=C(c1ccc(N[C@@H]2CCc3ncccc32)nc1)N1CCC2(CCOCC2)C1 [Compound of formula I] | Clarified solution |
| O=C(O)C=CC(=O)O.O=C(c1cnc(NC2CCc3ncccc32)nc1)N1CCC2(CCOCC2)C1 (stereo not shown) [Fumarate of compound of formula I] | Clarified solution |
| O=C(O)CC(O)C(=O)O.O=C(c1cnc(NC2CCc3ncccc32)nc1)N1CCC2(CCOCC2)C1 [D-malate of compound of formula I] | Clarified solution |

----------
Please go through the items and note down their solubility at 24 h.
test: Solubility test of compound of formula I and its salts at 37° C.; assay type: physicochemical; settings: pH 7.4 medium, aqueous buffer, thermodynamic from solid; pH 7.4, 37° C., 24 h, calculated as free base; read-out: Solubility (mg/mL) (24 h)
Give bare numbers, in mg/mL.

| molecule | solubility at 24 h [mg/mL] |
| --- | --- |
| O=C(c1ccc(N[C@@H]2CCc3ncccc32)nc1)N1CCC2(CCOCC2)C1 [Compound of formula I] | 5.2 |

Now for another entry.
Entry O=C(c1cnc(N[C@@H]2CCc3ncccc32)nc1)N1CCC2(CCOCC2)C1 [Mono-L-tartrate of compound of formula I] ; solubility at 24 h = 4.97

----------
test: Solubility test of compound of formula I and its salts at 37° C.; format: physicochemical; settings: thermodynamic from solid; FeSSIF, 37° C., 24 h, calculated as free base; read-out: Solubility (mg/mL) (24 h)
Please go through the items and note down their solubility at 24 h.
One number for each entry, in mg/mL.

| compound | solubility at 24 h / mg/mL |
| --- | --- |
| O=C(c1cnc(N[C@@H]2CCc3ncccc32)nc1)N1CCC2(CCOCC2)C1 [Mono-L-tartrate of compound of formula I] | 5.02 |

Entry O=C(c1ccc(N[C@@H]2CCc3ncccc32)nc1)N1CCC2(CCOCC2)C1 [Compound of formula I] ; solubility at 24 h = 5.33

----------
assay: Solubility test of compound of formula I and its salts at 37° C.; format: physicochemical; details: pH 7.4 medium, aqueous buffer, thermodynamic from solid; pH 7.4, 37° C., 1 h, calculated as free base; read-out: Solubility (mg/mL) (1 h)
endpoint.label: solubility at 1 h (mg/mL)
One number for each entry, in mg/mL.

| molecule | solubility at 1 h, mg/mL |
| --- | --- |
| O=C(c1ccc(N[C@@H]2CCc3ncccc32)nc1)N1CCC2(CCOCC2)C1 | 5.11 |

Entry O=C(c1cnc(N[C@@H]2CCc3ncccc32)nc1)N1CCC2(CCOCC2)C1 [Mono-L-tartrate of compound of formula I] ; solubility at 1 h = 5.09

----------
assay: Solubility test of compound of formula I and its salts at 37° C.; type: physicochemical; details: thermodynamic from solid; FeSSIF, 37° C., 1 h, calculated as free base; read-out: Solubility (mg/mL) (1 h)
endpoint.label: solubility at 1 h (mg/mL)
One number for each entry, in mg/mL.

| molecule | solubility at 1 h [mg/mL] |
| --- | --- |
| O=C(c1ccc(N[C@@H]2CCc3ncccc32)nc1)N1CCC2(CCOCC2)C1 | 5.46 |

Now for another entry.
Entry O=C(c1cnc(N[C@@H]2CCc3ncccc32)nc1)N1CCC2(CCOCC2)C1 [Mono-L-tartrate of compound of formula I] ; solubility at 1 h = 5.12

----------
experiment: Solubility test of compound of formula I and its salts at 37° C.; type: physicochemical; settings: Water, 37° C.
endpoint.label: Final pH
Numbers only.

As a guide, the following entries are already answered.
| compound | endpoint.label | readout.value |
| --- | --- | --- |
| O=C(c1ccc(N[C@@H]2CCc3ncccc32)nc1)N1CCC2(CCOCC2)C1 | Final pH | 7.32 |
| O=C(O)CC(O)C(=O)O.O=C(c1cnc(NC2CCc3ncccc32)nc1)N1CCC2(CCOCC2)C1 [D-malate of compound of formula I] | Final pH | 3.75 |
| O=C(O)C=CC(=O)O.O=C(c1cnc(NC2CCc3ncccc32)nc1)N1CCC2(CCOCC2)C1 (stereo not shown) [Fumarate of compound of formula I] | Final pH | 3.32 |

Now for another entry.
Entry O=C(c1cnc(N[C@@H]2CCc3ncccc32)nc1)N1CCC2(CCOCC2)C1 [Mono-L-tartrate of compound of formula I] ; Final pH = 3.21

----------
assay: Solubility test of compound of formula I and its salts at 37° C.; type: physicochemical; settings: thermodynamic from solid; Water, 37° C., 1 h, calculated as free base; read-out: Solubility (mg/mL) (1 h)
endpoint.label: solubility at 1 h
Please give the number followed by its unit.

| compound | solubility at 1 h |
| --- | --- |
| O=C(c1ccc(N[C@@H]2CCc3ncccc32)nc1)N1CCC2(CCOCC2)C1 [Compound of formula I] | 10.6 mg/mL |

Now for another entry.
Entry O=C(c1cnc(N[C@@H]2CCc3ncccc32)nc1)N1CCC2(CCOCC2)C1 [Mono-L-tartrate of compound of formula I] ; solubility at 1 h = 10.3 mg/mL

----------
assay: Solubility test of compound of formula I and its salts at 37° C.; type: physicochemical; settings: simulated gastric fluid, thermodynamic from solid; SGF, 37° C., 24 h, calculated as free base; read-out: Solubility (mg/mL) (24 h)
endpoint.label: solubility at 24 h (mg/mL)
Give bare numbers, in mg/mL.

Working through the 2 compounds below one at a time, give solubility at 24 h for each.
1. O=C(c1ccc(N[C@@H]2CCc3ncccc32)nc1)N1CCC2(CCOCC2)C1
2. O=C(c1cnc(N[C@@H]2CCc3ncccc32)nc1)N1CCC2(CCOCC2)C1 [Mono-L-tartrate of compound of formula I]

A.
1. 5.39
2. 5.25

----------
Please go through the items and note down their solubility at 24 h.
experiment: Solubility test of compound of formula I and its salts at 37° C.; assay type: physicochemical; conditions: thermodynamic from solid; FaSSIF, 37° C., 24 h, calculated as free base; read-out: Solubility (mg/mL) (24 h)
One number for each entry, in mg/mL.

| compound | solubility at 24 h (mg/mL) |
| --- | --- |
| O=C(c1cnc(N[C@@H]2CCc3ncccc32)nc1)N1CCC2(CCOCC2)C1 [Mono-L-tartrate of compound of formula I] | 5.12 |

Now for another entry.
Entry O=C(c1ccc(N[C@@H]2CCc3ncccc32)nc1)N1CCC2(CCOCC2)C1 ; solubility at 24 h = 5.22
